Sourced from patent US11760773B2

assay: Comparative plasma PK of Compound 1 versus Int 1-4 in male CD-1 mice (study b); type: in vivo; details: male, CD-1, mouse, iv, 10 mg/kg, after iv Int 1-4 10.0 mg/kg, Formulation 2, read-out: Tmax
measurement type: Tmax (min)
Express your answer in min, writing the number without its unit.

Answer with reported Tmax of `Nc1ccn([C@@H]2O[C@H](CO)[C@@H](O)C2(F)F)c(=O)n1`
2

* * *

Assay: Int 1-4 plasma PK in the male cynomolgus monkey (study f)
Format: in vivo
Details: after iv Int 1-4 5 mg/kg (study f)
Method: Objectives: to compare the plasma pharmacokinetics and stability of Int 1-4 in plasma following single intravenous infusion administration of Int 1-4 at 5 mg/kg and 10 mg/kg in the male cynomolgus monkey PK measurements: compare PK parameters C0, CL, Vdss, Cmax, tmax, t, AUC(0-t), AUC(0-inf), MRT(0-t), MRT(0-inf) for Int 1-4
measurement type: AUC(0-t) (ng·h/mL)
Express your answer in ng·h/mL, writing the number without its unit.

Answer with reported AUC(0-t) of `COc1cc(OC)c2oc(COC(=O)Nc3ccn([C@@H]4O[C@H](CO)[C@@H](O)C4(F)F)c(=O)n3)cc2c1`
5460

* * *

assay: Comparative plasma PK of Compound 1 versus Int 1-4 in male CD-1 mice (study b); type: in vivo; conditions: male, CD-1, mouse, iv, 23.2 mg/kg, after iv Compound 1 23.2 mg/kg
Where a name gives a salt, the structure may show the parent alone.
measurement type: C0
State the result as a value with its unit after it.

Answer with reported C0 of COc1cc(OC)c2oc(COC(=O)Nc3ccn([C@@H]4O[C@H](COP(=O)(O)O)[C@@H](O)C4(F)F)c(=O)n3)cc2c1 [Compound 1, ammonium salt]
2330 ng/mL

* * *

Entries and their MRT inf
experiment: Int 1-4 plasma PK in the male cynomolgus monkey (study f); assay type: in vivo; conditions: after iv Int 1-4 10 mg/kg (study f), read-out: MRT0-inf
State the result as a value with its unit after it.

- smiles input: "Nc1ccn([C@@H]2O[C@H](CO)[C@@H](O)C2(F)F)c(=O)n1"
  MRT inf: "53.4 h"

Next up:
Answer with reported MRT inf of `COc1cc(OC)c2oc(COC(=O)Nc3ccn([C@@H]4O[C@H](CO)[C@@H](O)C4(F)F)c(=O)n3)cc2c1`
0.44 h

* * *

experiment: Comparative PK of Int 1-4 versus gemcitabine in rat plasma (study i); format: in vivo, Sprague-Dawley rats; conditions: plasma, Sprague-Dawley rat, after iv gemcitabine 4.47 mg/kg
measurement type: C0 (ng/mL)
Express your answer in ng/mL, writing the number without its unit.

Answer with reported C0 of `Nc1ccn([C@@H]2O[C@H](CO)[C@@H](O)C2(F)F)c(=O)n1`
8410

* * *

assay: Comparative PK of Int 1-4 versus gemcitabine in rat plasma (study i); type: in vivo, Sprague-Dawley rats; settings: plasma, Sprague-Dawley rat, after iv Int 1-4 10.0 mg/kg; read-out: MRT0-inf
measurement type: MRT inf (h)
Express your answer in h, writing the number without its unit.

Answer with reported MRT inf of COc1cc(OC)c2oc(COC(=O)Nc3ccn([C@@H]4O[C@H](CO)[C@@H](O)C4(F)F)c(=O)n3)cc2c1 [Int 1-4]
0.185

Answer with reported MRT inf of Nc1ccn([C@@H]2O[C@H](CO)[C@@H](O)C2(F)F)c(=O)n1 [Gemcitabine, gemcitabine]
13.8

* * *

Entries and their MRT last
assay: Int 1-4 and gemcitabine comparative PK in male cynomolgus monkey (study g); assay type: in vivo; conditions: plasma, male cynomolgus monkey, after iv Int 1-4 5 mg/kg (study g); read-out: MRT0-last
Express your answer in min, writing the number without its unit.

- smiles input: "Nc1ccn([C@@H]2O[C@H](CO)[C@@H](O)C2(F)F)c(=O)n1"
  MRT last (min): 9

Next up:
Answer with reported MRT last of `COc1cc(OC)c2oc(COC(=O)Nc3ccn([C@@H]4O[C@H](CO)[C@@H](O)C4(F)F)c(=O)n3)cc2c1`
19.2

* * *

test: Comparative plasma PK of Int 1-4 versus gemcitabine in mouse (study a); type: in vivo; settings: mouse; plasma, CD-1 mice, after iv Int 1-4 9.4 mg/kg; read-out: Vdss
measurement type: Vd (L/kg)
Express your answer in L/kg, writing the number without its unit.

Answer with reported Vd of `COc1cc(OC)c2oc(COC(=O)Nc3ccn([C@@H]4O[C@H](CO)[C@@H](O)C4(F)F)c(=O)n3)cc2c1`
0.566

* * *

Assay: Comparative plasma PK of Compound 1 versus Int 1-4 in male CD-1 mice (study b)
Format: in vivo
Settings: male, CD-1, mouse, iv, 23.2 mg/kg, after iv Compound 1 23.2 mg/kg
Experimental: Objectives: to compare the plasma pharmacokinetics and stability of Compound 1 with its non-phosphorylated SMDC analog (Int 1-4) and in plasma following a single intravenous infusion administration of Compound 1 at 11.6 mg/kg and 23.2 mg/kg with Int 1-4 (formulation F1 & F2) at 10.0 mg/kg in male CD-1 mice PK measurements: compare PK parameters C0, CL, Vdss, Cmax, tmax, t1/2, AUC(0-t), AUC(0-inf), MRT(0-t), MRT(0-inf) for Compound 1 and Int 1-4
Counter-ions that a name gives are not always drawn.
Entries and their half-life
Express your answer in min, writing the number without its unit.

- compound: "COc1cc(OC)c2oc(COC(=O)Nc3ccn([C@@H]4O[C@H](CO)[C@@H](O)C4(F)F)c(=O)n3)cc2c1"
  measurement: 55.8

Answer with reported half-life of `Nc1ccn([C@@H]2O[C@H](CO)[C@@H](O)C2(F)F)c(=O)n1`
61.8

Answer with reported half-life of COc1cc(OC)c2oc(COC(=O)Nc3ccn([C@@H]4O[C@H](COP(=O)(O)O)[C@@H](O)C4(F)F)c(=O)n3)cc2c1 [Compound 1, ammonium salt]
2.18

* * *

assay: Comparative PK of Int 1-4 versus gemcitabine in rat plasma (study i); assay type: in vivo, Sprague-Dawley rats; conditions: plasma, Sprague-Dawley rat, after iv Int 1-4 10.0 mg/kg
measurement type: C0 (ng/mL)
Express your answer in ng/mL, writing the number without its unit.

Answer with reported C0 of `COc1cc(OC)c2oc(COC(=O)Nc3ccn([C@@H]4O[C@H](CO)[C@@H](O)C4(F)F)c(=O)n3)cc2c1`
29400

* * *

assay: Rat plasma stability; type: in vitro ADME; details: Sprague Dawley rat plasma; read-out: t1/2 (converted)
measurement type: half-life at 3 μM

Answer with reported half-life at 3 μM of COc1cc(OC)c2oc(COC(=O)Nc3ccn([C@@H]4O[C@H](CO)[C@@H](O)C4(F)F)c(=O)n3)cc2c1 [Int 1-4]
~72 min

* * *

assay: Plasma PK of Int 3-3 in CD-1 mice (study c); type: in vivo; settings: mouse, after iv Int 3-3 8.8 mg/kg, read-out: AUC0-inf
Entries and their AUC(0-inf)
Express your answer in ng·h/mL, writing the number without its unit.

- smiles input: "[2H]C([2H])([2H])Oc1cc(OC([2H])([2H])[2H])c2oc(COC(=O)Nc3ccn([C@@H]4O[C@H](CO)[C@@H](O)C4(F)F)c(=O)n3)cc2c1"
  AUC(0-inf) / ng·h/mL: 3510

Next up:
Answer with reported AUC(0-inf) of `Nc1ccn([C@@H]2O[C@H](CO)[C@@H](O)C2(F)F)c(=O)n1`
71.9

* * *

experiment: Comparative PK of Int 1-4 versus gemcitabine in rat plasma (study i); type: in vivo, Sprague-Dawley rats; details: Sprague-Dawley, rat, plasma, iv, 10 mg/kg, plasma, Sprague-Dawley rat, after iv Int 1-4 10.0 mg/kg
measurement type: half-life (h)
Express your answer in h, writing the number without its unit.

Answer with reported half-life of COc1cc(OC)c2oc(COC(=O)Nc3ccn([C@@H]4O[C@H](CO)[C@@H](O)C4(F)F)c(=O)n3)cc2c1 [Int 1-4]
0.319

* * *

test: Plasma PK of Int 3-3 in CD-1 mice (study c); assay type: in vivo; details: mouse, after iv Int 3-3 8.8 mg/kg
measurement type: clearance
State the result as a value with its unit after it.

Answer with reported clearance of `[2H]C([2H])([2H])Oc1cc(OC([2H])([2H])[2H])c2oc(COC(=O)Nc3ccn([C@@H]4O[C@H](CO)[C@@H](O)C4(F)F)c(=O)n3)cc2c1`
43.3 mL/min/kg

* * *

assay: Comparative plasma PK of Compound 1 versus Int 1-4 in male CD-1 mice (study b); assay type: in vivo; settings: male, CD-1, mouse, iv, 10 mg/kg, after iv Int 1-4 10.0 mg/kg, Formulation 2, read-out: AUC0-inf
measurement type: AUC(0-inf) (ng·h/mL)
Express your answer in ng·h/mL, writing the number without its unit.

- compound: "COc1cc(OC)c2oc(COC(=O)Nc3ccn([C@@H]4O[C@H](CO)[C@@H](O)C4(F)F)c(=O)n3)cc2c1 [Int 1-4]"
  AUC(0-inf) [ng·h/mL]: 4290

Next up:
Answer with reported AUC(0-inf) of Nc1ccn([C@@H]2O[C@H](CO)[C@@H](O)C2(F)F)c(=O)n1 [Gemcitabine, gemcitabine]
102
